Target: b-Raf(V600E) (Homo sapiens, UniProt P15056, V600E)
Construct: made in house
Sequence (P15056 whole entry V600E): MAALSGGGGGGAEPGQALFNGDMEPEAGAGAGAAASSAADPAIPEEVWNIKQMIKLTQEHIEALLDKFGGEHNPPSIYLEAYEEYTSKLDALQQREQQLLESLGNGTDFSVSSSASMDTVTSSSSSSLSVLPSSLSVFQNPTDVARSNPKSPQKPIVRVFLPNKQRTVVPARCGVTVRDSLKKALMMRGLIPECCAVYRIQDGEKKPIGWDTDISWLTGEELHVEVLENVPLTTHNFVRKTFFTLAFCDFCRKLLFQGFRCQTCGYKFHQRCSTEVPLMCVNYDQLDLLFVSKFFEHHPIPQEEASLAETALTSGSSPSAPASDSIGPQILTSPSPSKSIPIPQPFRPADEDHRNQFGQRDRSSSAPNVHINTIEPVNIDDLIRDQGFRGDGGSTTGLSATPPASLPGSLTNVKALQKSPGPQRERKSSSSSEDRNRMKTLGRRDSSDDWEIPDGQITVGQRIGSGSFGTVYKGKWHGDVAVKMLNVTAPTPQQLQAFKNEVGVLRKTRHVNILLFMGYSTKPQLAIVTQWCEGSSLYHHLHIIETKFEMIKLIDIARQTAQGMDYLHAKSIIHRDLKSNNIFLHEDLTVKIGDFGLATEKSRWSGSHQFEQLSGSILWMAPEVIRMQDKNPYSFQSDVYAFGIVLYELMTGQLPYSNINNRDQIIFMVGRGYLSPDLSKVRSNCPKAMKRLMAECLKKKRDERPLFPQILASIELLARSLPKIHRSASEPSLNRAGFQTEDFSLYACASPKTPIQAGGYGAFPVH
Experiment: Raf/Mek Amplified Luminescence Proximity Homogeneous Assay (Alpha Screen), b-Raf(V600E)
Format: biochemical
Details: mutant b-Raf(V600E), read-out: mut-b-RAF (IC50 in uM)
propertyName: IC50 (µM)

The examples below pair each entry with its known result.
1) COc1cc(-c2nc(-c3ccc(F)cc3)[nH]c2-c2ccnc(C#N)c2)cnc1N [Compound 173] : 0.197
2) COc1cc(-c2[nH]c(-c3ccc(C(N)=O)cc3)nc2-c2ccncc2)cnc1N [Compound 126] : 0.0035
3) COc1cc(-c2nc(-c3ccc(F)cc3)[nH]c2-c2ccnc(Nc3cccc(C(F)(F)F)c3)n2)cnc1N [Compound 171] : 0.0013

[A] COc1cc(-c2[nH]c(-c3ccccc3)nc2-c2ccnc(N[C@H]3CCCN(S(=O)(=O)c4ccc(Cl)cc4)C3)n2)cnc1N [Compound 62]
[B] COc1cc(-c2nc(-c3ccccc3)[nH]c2-c2ccncc2)cnc1N [Example 1]
q: IC50 comparison. Which is larger, A or B ? Kindly state the label of the option you pick.
a: B
(B: 0.001 µM, A: 0.0003 µM)

----------
Molecular target: b-Raf(V600E) (Homo sapiens, UniProt P15056, V600E)
Construct: made in house
Assay: Raf/Mek Amplified Luminescence Proximity Homogeneous Assay (Alpha Screen), b-Raf(V600E)
Assay type: biochemical
Conditions: mutant b-Raf(V600E), read-out: mut-b-RAF (IC50 in uM)
propertyName: IC50 (µM)

The examples below pair each entry with its known result.
1. COc1cc(-c2[nH]c(-c3ccccc3)nc2-c2ccnc(N[C@@H]3CCCN(S(=O)(=O)C4CC4)C3)n2)cnc1N : 0.0044
2. CCCNc1nccc(-c2[nH]c(C(C)(C)C)nc2-c2cnc(N)c(OC)c2)n1 : 0.0001

[P] COc1cc(-c2nc(-c3ccc(F)cc3)[nH]c2-c2ccnc(NC(C)C)n2)cnc1N
[Q] COc1cc(Nc2nccc(-c3[nH]c(C(C)C)nc3-c3cnc(N)c(OC)c3)n2)ccn1
[R] COc1ccc(-c2nc(-c3ccncc3)c(-c3cnc(N)c(OC)c3)[nH]2)cc1
[S] COc1cc(-c2[nH]c(-c3ccccc3)nc2-c2ccn[nH]2)cnc1N
q: Task field, ranking: reported IC50, descending order. Enter labels, ranked according to the request.
a: S, P, R, Q

[P] COc1cc(-c2nc(-c3ccc(F)cc3)[nH]c2-c2ccnc(NC[C@H](C)NC(=O)[C@@H](C)OC)n2)cnc1N
[Q] COCC(=O)N[C@@H](C)CNc1nccc(-c2[nH]c(-c3ccc(C(F)(F)F)cc3F)nc2-c2cnc(N)c(OC)n2)n1
[R] COc1cc(-c2[nH]c(-c3ccc(F)cc3)nc2-c2ccnc(NC3CCN(S(=O)(=O)C4CC4)CC3)n2)cnc1N
q: Task field, ranking: reported IC50, descending order. Enter labels, ranked according to the request.
a: R, P, Q
(R: 0.0025 µM, P: 0.0002 µM, Q: 0.0001 µM)

----------
Target: b-Raf(V600E) (Homo sapiens, UniProt P15056, V600E)
Construct: made in house
Assay: Raf/Mek Amplified Luminescence Proximity Homogeneous Assay (Alpha Screen), b-Raf(V600E)
Assay type: biochemical
Settings: mutant b-Raf(V600E), read-out: mut-b-RAF (IC50 in uM)
propertyName: IC50 (µM)

1. COCCCNc1nccc(-c2nc(-c3ccc(F)cc3)[nH]c2-c2cnc(N)c(OC)c2)n1 : 0.001
2. COc1cc(-c2nc(C(C)(C)C)[nH]c2-c2ccnc(NC[C@H](C)NC(=O)[C@H](C)OC)n2)cnc1N : 0.0007
3. Fc1ccc(-c2nc(-c3ccncc3)c(-c3cnc4[nH]cc(Br)c4c3)[nH]2)cc1 : 0.0007
4. COCC(=O)N[C@@H](C)CNc1nccc(-c2[nH]c(C(C)(C)C)nc2-c2cnc(N)c(OC)c2)n1 : 0.0004
5. COc1cc(Nc2nccc(-c3[nH]c(C(C)(C)C)nc3-c3cnc(N)c(OC)n3)n2)ccn1 : 0.0001
6. COc1cc(-c2[nH]c(-c3ccc(F)cc3)nc2-c2ccnc(NCC3CC3)n2)cnc1N : 0.0007
7. COc1cc(-c2nc(-c3ccc(F)cc3)[nH]c2-c2ccnc(NC[C@H](C)NC(=O)[C@H](C)OC)n2)cnc1N : 0.0001

[P] COc1cc(-c2[nH]c(-c3ccc(C)cc3F)nc2-c2ccncc2)cnc1N
[Q] COc1nc(-c2nc(C(C)(C)C)[nH]c2-c2ccnc(NC[C@H](C)NC(=O)OCC(C)(C)C)n2)cnc1N
[R] CCS(=O)(=O)N1CCN(c2nc(-c3ccncc3)c(-c3cnc(N)c(OC)c3)[nH]2)CC1
[S] COc1cc(-c2[nH]c(-c3ccc(F)cc3)nc2-c2cnc(N)c(OC)c2)ccn1
[T] COc1cc(-c2nc(C(C)(C)C)[nH]c2-c2ccnc(Nc3cccc(C(F)(F)F)c3)n2)cnc1N
q: Task field, ranking: reported IC50, descending order. Enter labels, ranked according to the request.
a: S, R, P, T, Q
(S: 0.737 µM, R: 0.04 µM, P: 0.0009 µM, T: 0.0004 µM, Q: 0.0001 µM)
